Please go through the items and note down their PBM E-score.
Target: Stp1 (UniProt B3LFK1)
Sequence: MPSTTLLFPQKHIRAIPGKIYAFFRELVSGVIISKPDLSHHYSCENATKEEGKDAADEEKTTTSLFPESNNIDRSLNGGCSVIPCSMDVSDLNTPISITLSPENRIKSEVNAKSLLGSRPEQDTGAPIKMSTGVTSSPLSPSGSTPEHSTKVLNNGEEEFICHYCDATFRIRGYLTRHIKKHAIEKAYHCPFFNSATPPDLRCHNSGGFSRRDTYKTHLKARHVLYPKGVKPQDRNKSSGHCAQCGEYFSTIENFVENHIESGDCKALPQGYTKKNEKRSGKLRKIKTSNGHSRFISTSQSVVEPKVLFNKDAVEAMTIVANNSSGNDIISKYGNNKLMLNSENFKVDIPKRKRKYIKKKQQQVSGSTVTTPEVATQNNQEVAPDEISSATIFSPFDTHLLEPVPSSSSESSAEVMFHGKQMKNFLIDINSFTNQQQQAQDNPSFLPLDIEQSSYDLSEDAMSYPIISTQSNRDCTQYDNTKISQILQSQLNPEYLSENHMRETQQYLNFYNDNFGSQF
Assay: PBM E-score (8-mer binding enrichment) (E-score (-0.5 to 0.5)); higher = stronger / more preferred TF binding
Conditions: protein concentration: 200 nM; construct: GST-full length
In all, about 33,000 sequences were measured (“E-score (-0.5 to 0.5)”: median about -0.016, highest 2% from about 0.32 on). The entries come from a sample that favours the highest values as a whole.

Inquiry: Look up and report measured PBM E-score for this entry: `AACTGCCG`
Reply text: 0.329

Inquiry: Look up and report measured PBM E-score for this entry: `GCCGTGTA`
Reply text: 0.473

Inquiry: Look up and report measured PBM E-score for this entry: `CGCTAAAG`
Reply text: 0.0823

Inquiry: Look up and report measured PBM E-score for this entry: `CCGTATGA`
Reply text: 0.337

Inquiry: Look up and report measured PBM E-score for this entry: `AACGGCGT`
Reply text: 0.448

Inquiry: Look up and report measured PBM E-score for this entry: `ATTCCGCA`
Reply text: 0.0903

Inquiry: Look up and report measured PBM E-score for this entry: `AGGCGCCC`
Reply text: 0.232

Inquiry: Look up and report measured PBM E-score for this entry: `AATCTTCG`
Reply text: 0.196

Inquiry: Look up and report measured PBM E-score for this entry: `CCAACTGA`
Reply text: -0.167

Inquiry: Look up and report measured PBM E-score for this entry: `CAGTCTCC`
Reply text: -0.209

Inquiry: Look up and report measured PBM E-score for this entry: `AACAGAGC`
Reply text: 0.00906

Inquiry: Look up and report measured PBM E-score for this entry: `ACGGCGAA`
Reply text: 0.465

Inquiry: Look up and report measured PBM E-score for this entry: `CGATAAGA`
Reply text: 0.0597

Inquiry: Look up and report measured PBM E-score for this entry: `CACTGCCC`
Reply text: -0.071

Inquiry: Look up and report measured PBM E-score for this entry: `ACGGTCTC`
Reply text: -0.041

Inquiry: Look up and report measured PBM E-score for this entry: `ACGGCGGC`
Reply text: 0.445

Inquiry: Look up and report measured PBM E-score for this entry: `GCGCTCGA`
Reply text: 0.0767

Inquiry: Look up and report measured PBM E-score for this entry: `AACTGCCC`
Reply text: -0.192

Inquiry: Look up and report measured PBM E-score for this entry: `AATGGCAT`
Reply text: 0.356

Inquiry: Look up and report measured PBM E-score for this entry: `AGCCCACT`
Reply text: -0.203

Inquiry: Look up and report measured PBM E-score for this entry: `AACTGCCT`
Reply text: 0.0172

Inquiry: Look up and report measured PBM E-score for this entry: `CATGATCG`
Reply text: -0.0196

Inquiry: Look up and report measured PBM E-score for this entry: `AGCTACCG`
Reply text: -0.16

Inquiry: Look up and report measured PBM E-score for this entry: `ATGCCACG`
Reply text: 0.275

Inquiry: Look up and report measured PBM E-score for this entry: `CCCGTGTA`
Reply text: 0.0889

Inquiry: Look up and report measured PBM E-score for this entry: `CGAAGTGA`
Reply text: 0.00778

Inquiry: Look up and report measured PBM E-score for this entry: `AGTTGAGA`
Reply text: -0.0601

Inquiry: Look up and report measured PBM E-score for this entry: `TCCGTGCA`
Reply text: 0.258

Inquiry: Look up and report measured PBM E-score for this entry: `TATAAATA`
Reply text: 0.198

Inquiry: Look up and report measured PBM E-score for this entry: `ACATTAAT`
Reply text: 0.0799

Inquiry: Look up and report measured PBM E-score for this entry: `ATGCCGGA`
Reply text: 0.0395

Inquiry: Look up and report measured PBM E-score for this entry: `CTGGCCCC`
Reply text: -0.311

Inquiry: Look up and report measured PBM E-score for this entry: `ACCGGCAA`
Reply text: -0.0651

Inquiry: Look up and report measured PBM E-score for this entry: `ACAACAAT`
Reply text: 0.0375

Inquiry: Look up and report measured PBM E-score for this entry: `CCATAAAG`
Reply text: -0.0597

Inquiry: Look up and report measured PBM E-score for this entry: `AGAGCCGG`
Reply text: -0.0632

Inquiry: Look up and report measured PBM E-score for this entry: `CTTTTAGA`
Reply text: 0.0884

Inquiry: Look up and report measured PBM E-score for this entry: `CACCATTC`
Reply text: 0.0105

Inquiry: Look up and report measured PBM E-score for this entry: `ACGTAGAT`
Reply text: -0.0617

Inquiry: Look up and report measured PBM E-score for this entry: `CACTAGTG`
Reply text: 0.056

Inquiry: Look up and report measured PBM E-score for this entry: `CTGGGGAC`
Reply text: -0.392

Inquiry: Look up and report measured PBM E-score for this entry: `CCAGCCGC`
Reply text: 0.125

Inquiry: Look up and report measured PBM E-score for this entry: `GTGGTCTA`
Reply text: -0.307

Inquiry: Look up and report measured PBM E-score for this entry: `CCTGCACC`
Reply text: -0.271

Inquiry: Look up and report measured PBM E-score for this entry: `CCAACCTA`
Reply text: -0.175

Inquiry: Look up and report measured PBM E-score for this entry: `AACGGCAT`
Reply text: 0.451

Inquiry: Look up and report measured PBM E-score for this entry: `AATAAATA`
Reply text: 0.35

Inquiry: Look up and report measured PBM E-score for this entry: `CTAGTGCC`
Reply text: 0.301

Inquiry: Look up and report measured PBM E-score for this entry: `AAGACGAA`
Reply text: 0.0123

Inquiry: Look up and report measured PBM E-score for this entry: `AGTGCCTA`
Reply text: 0.21

Inquiry: Look up and report measured PBM E-score for this entry: `ATGCCACA`
Reply text: 0.243

Inquiry: Look up and report measured PBM E-score for this entry: `CAGCCACA`
Reply text: 0.161

Inquiry: Look up and report measured PBM E-score for this entry: `AATAAATG`
Reply text: 0.219

Inquiry: Look up and report measured PBM E-score for this entry: `GTGAAGTA`
Reply text: -0.0855

Inquiry: Look up and report measured PBM E-score for this entry: `CGAGGCGA`
Reply text: 0.289

Inquiry: Look up and report measured PBM E-score for this entry: `CTACCGCA`
Reply text: 0.0499

Inquiry: Look up and report measured PBM E-score for this entry: `CCCGTGGA`
Reply text: -0.0712

Inquiry: Look up and report measured PBM E-score for this entry: `GTGAGCAC`
Reply text: -0.066

Inquiry: Look up and report measured PBM E-score for this entry: `ACGTATGA`
Reply text: 0.15

Inquiry: Look up and report measured PBM E-score for this entry: `TACTCTAA`
Reply text: 0.034

Inquiry: Look up and report measured PBM E-score for this entry: `ACGGCGGG`
Reply text: 0.289

Inquiry: Look up and report measured PBM E-score for this entry: `AGGGCTAG`
Reply text: -0.207

Inquiry: Look up and report measured PBM E-score for this entry: `CAAATTGC`
Reply text: 0.115

Inquiry: Look up and report measured PBM E-score for this entry: `CTAGGTTA`
Reply text: 0.00212

Inquiry: Look up and report measured PBM E-score for this entry: `AACTCTAA`
Reply text: -0.00844

Inquiry: Look up and report measured PBM E-score for this entry: `AACGGCAC`
Reply text: 0.472

Inquiry: Look up and report measured PBM E-score for this entry: `AGTGCCTG`
Reply text: -0.0958

Inquiry: Look up and report measured PBM E-score for this entry: `CTCACAAA`
Reply text: 0.109

Inquiry: Look up and report measured PBM E-score for this entry: `CGAGCCGA`
Reply text: 0.124

Inquiry: Look up and report measured PBM E-score for this entry: `AAAGTCGA`
Reply text: -0.15

Inquiry: Look up and report measured PBM E-score for this entry: `CACTGCCA`
Reply text: 0.0847

Inquiry: Look up and report measured PBM E-score for this entry: `ATGCCGCG`
Reply text: 0.475

Inquiry: Look up and report measured PBM E-score for this entry: `ATCGGCAA`
Reply text: 0.106

Inquiry: Look up and report measured PBM E-score for this entry: `AAGCGTAC`
Reply text: -0.161

Inquiry: Look up and report measured PBM E-score for this entry: `ACCTATCG`
Reply text: 0.0549

Inquiry: Look up and report measured PBM E-score for this entry: `AGGGCGAA`
Reply text: -0.0283

Inquiry: Look up and report measured PBM E-score for this entry: `CACCCTAG`
Reply text: -0.172

The measurements presented in this section are drawn from the supplement of paper PMC3334620.
